ASSAY_SYSTEM: SARS2 coronavirus 3CL protease (Severe acute respiratory syndrome coronavirus 2 (2019-nCoV) (SARS-CoV-2))
REPORTED_ENDPOINT: pIC50
# pIC50: negative log10 of molar concentration; output just the value

Some solved entries appear below for comparison.
>>> value("CNC(=O)C(=O)[C@H](CCC(C)(F)F)NC(=O)C1CCCC(C)N1C(=O)[C@@H](NC(=O)OC)C(C)(C)C (single isomer, unassigned) [Example 110]")
7.21
>>> value("COC(=O)N[C@H](C(=O)N1CC[C@@H](C(F)(F)F)C[C@H]1C(=O)N[C@@H](CCC(C)(F)F)C(=O)C(=O)NC1CC1)C(C)(C)C [Example 61]")
7.80

Attention now turns to another entry.
Param item = COC(=O)N[C@H](C(=O)N1CC(C)(C)C[C@H]1C(=O)N[C@@H](CCC(C)(F)F)C(=O)C(=O)NC1CC1)C(C)(C)C [Example 76] ; retrieve measured pIC50. 7.06

* * *

ASSAY_SYSTEM: SARS2 coronavirus 3CL protease (Severe acute respiratory syndrome coronavirus 2 (2019-nCoV) (SARS-CoV-2), UniProt P0DTD1)
Recorded IC50 values for a group of compounds are listed next.
Just the number plus its unit, please.

Reference set, count: 4
>>> value("COC(=O)N[C@H](C(=O)N1C[C@H]2[C@@H]([C@H]1C(=O)N[C@@H](CCC(C)(F)F)C(=O)C(=O)NC1CC1)C2(C)C)C(C)(C)C")
"17 nM"
>>> value("COC(=O)N[C@H](C(=O)N1CC2(C[C@H]1C(=O)N[C@@H](CCC(C)(F)F)C(=O)C(=O)NC1CC1)CC2(F)F)C(C)(C)C (single isomer, unassigned)")
"15 nM"
>>> value("COC(=O)N[C@H](C(=O)N1CCC(OC(F)(F)F)CC1C(=O)N[C@@H](CCC(C)(F)F)C(=O)C(=O)NC1CC1)C(C)(C)C (single isomer, unassigned)")
"146 nM"
>>> value("CCNC(=O)C(=O)[C@H](CCC(C)(F)F)NC(=O)[C@@H]1[C@H]2CCC[C@H]2CN1C(=O)[C@@H](NC(=O)OC)C(C)(C)C")
"22 nM"

Please give the measured IC50 for this compound: COC(=O)N[C@H](C(=O)N1CC2(CCCCC2)C[C@H]1C(=O)N[C@@H](CCC(C)(F)F)C(=O)C(=O)NC1CCCCC1)C(C)(C)C 136 nM

Input COC(=O)N[C@H](C(=O)N1CCC2CC2[C@H]1C(=O)N[C@@H](CCC(C)(F)F)C(=O)C(=O)NC1CC1)C(C)(C)C (single isomer, unassigned) 83 nM

* * *

ASSAY_SYSTEM: SARS2 coronavirus 3CL protease (Severe acute respiratory syndrome coronavirus 2 (2019-nCoV) (SARS-CoV-2), UniProt P0DTD1)
Friendly reminder: IC50 below 20 nM is yes (1), at or above is no (0).

Completed entries (count: 5):
>>> discrete_label("COC(=O)N[C@H](C(=O)N1C[C@H]2[C@@H](C1C(=O)N[C@@H](CCC(C)(F)F)C(=O)C(=O)NC1CC1)C2(Cl)Cl)C(C)(C)C (single isomer, unassigned)")
"yes (1)"
>>> discrete_label("CNC(=O)C(=O)[C@H](CCC(C)(F)F)NC(=O)[C@@H]1CC2(CN1C(=O)[C@@H](NC(=O)OC)C(C)(C)C)CC(F)(F)C2")
"no (0)"
>>> discrete_label("COC(=O)N[C@H](C(=O)N1C[C@H]2[C@@H]([C@H]1C(=O)N[C@@H](CCC(C)(F)F)C(=O)C(=O)NC1CC1)C2(F)F)C(C)(C)C")
"no (0)"
>>> discrete_label("CNC(=O)C(=O)[C@H](CCC(C)(F)F)NC(=O)[C@@H]1[C@H]2CCC[C@H]2CN1C(=O)[C@H](CC(F)(F)F)NC(=O)OC")
"yes (1)"
>>> discrete_label("COC(=O)N[C@H](C(=O)N1CC2(CCCCC2)C[C@H]1C(=O)N[C@@H](CCC(C)(F)F)C(=O)C(=O)NC(C)C)C(C)(C)C")
"no (0)"

Please let me know if CNC(=O)C(=O)[C@H](CCC(C)(F)F)NC(=O)[C@@H]1C[C@@H](C(F)(F)F)CN1C(=O)[C@@H](NC(=O)OC)C(C)(C)C shows IC50 below 20 nM. yes (1)

What do we get for COC(=O)N[C@H](C(=O)N1C[C@H]2[C@@H]([C@H]1C(=O)N[C@@H](CCC(C)(F)F)C(=O)C(N)=O)C(C)(C)C2(C)C)C(C)(C)C ? no (0)

Cool, now COC(=O)N[C@H](C(=O)N1CC2CCC(C1C(=O)N[C@@H](CCC(C)(F)F)C(=O)C(=O)NC1CC1)C2(F)F)C(C)(C)C (single isomer, unassigned) no (0)

Field entry: COC(=O)N[C@H](C(=O)N1CC2(CCCCC2)C[C@H]1C(=O)N[C@@H](CCC(C)(F)F)C(=O)C(=O)NCc1ccccc1)C(C)(C)C yes (1)

Also check COC(=O)N[C@H](C(=O)N1CC2(CCCC2)C[C@H]1C(=O)N[C@@H](CCC(C)(F)F)C(=O)C(=O)NC1CC1)C(C)(C)C no (0)

Now give it for COC(=O)N[C@H](C(=O)N1C[C@H](C(F)(F)F)C[C@H]1C(=O)N[C@@H](CCC(C)(F)F)C(=O)C(=O)NC1CC1)C(C)(C)F too. no (0)
